Provenance of the data: PubChem BioAssay (EPA / NIEHS)

read-out: Vascular cell adhesion molecule 1 (VCAM1), VCAM1 (gene 7412); experiment: BSK_LPS_VCAM1: BioMAP Diversity Plus: LPS Assay for Vascular cell adhesion molecule 1 (VCAM1) Biomarker Activity (AID 2283086); settings: primary human HUVEC with PBMC; actives raise or lower the signal
The source made the active and inactive calls. How the source made its calls: active means hit-call score of the fitted dose curve at least 0.9, where 1 is the maximum; inactive means score below 0.9.
Classes used: active, inactive

molecule=CCOC(=O)CC(O)(CC(=O)OCC)C(=O)OCC classification=inactive
molecule=CCCCCCCCC(=O)O classification=inactive
molecule="CC(O)CO (stereo unspecified)" classification=inactive
molecule=O=C(O)c1ccccc1C(c1ccc(O)cc1)c1ccc(O)cc1 classification=inactive
molecule=CCCCCCCCCCCCc1ccccc1S(=O)(=O)O classification=inactive
molecule=Oc1cc2ccccc2c2ccccc12 classification=active
molecule="CCC(C)(C)C1CCC(O)CC1 (stereo unspecified)" classification=inactive
molecule="CCc1nn(C2CCCCC2)c2cc(C3(C#N)CCC(C(=O)O)CC3)ccc12 (stereo unspecified)" classification=active
molecule=CC(=O)CC(C)(C)O classification=inactive
molecule=CC(=O)NC1(c2cccc(F)c2)CCN(CC[C@@]2(c3ccc(Cl)c(Cl)c3)CN(c3ccccc3)C(=O)CO2)CC1 classification=active
molecule=Cc1cc(C)c(O)c(C)c1 classification=inactive
molecule=C=C(C)C(=O)OCCC(F)(F)C(F)(F)C(F)(F)C(F)(F)C(F)(F)C(F)(F)F classification=inactive
molecule=CC(C)(C)CC(C)(C)c1ccc(O)c(-n2nc3ccccc3n2)c1 classification=inactive
molecule=CN1CCN(c2ccccc2/C=C2\SCCN(c3ccc(Cl)c(Cl)c3)C2=O)CC1 classification=active
molecule=O=c1c(-c2ccc(O)cc2)coc2cc(O)ccc12 classification=active
molecule=c1ccc2cc3c(ccc4ccccc43)cc2c1 classification=inactive

====

test: ATG_M_06_CIS: Attagene CIS-FACTORIAL HepG2 Assay for M06 Transcription Factor (Internal Marker) (AID 2282950); settings: HepG2 Attagene CIS-FACTORIAL M06 internal marker reporter; actives raise or lower the signal
The source made the active and inactive calls. The calls were made as follows: active = hit-call score of the fitted dose curve at least 0.9, where 1 is the maximum; inactive = score below 0.9.
readout type: outcome

compound=CCCCCCCCC(=O)O endpoint_value=inactive
compound=O=C(O)c1ccccc1C(c1ccc(O)cc1)c1ccc(O)cc1 endpoint_value=inactive
compound="N#C[C@@H]1CC(F)(F)CN1C(=O)CNC1CC2CCC(C1)N2c1ncccn1 (stereo partly specified)" endpoint_value=inactive
compound=CC#C[C@]1(O)CC[C@H]2[C@@H]3CCC4=CC(=O)CCC4=C3[C@@H](c3ccc(N(C)C)cc3)C[C@@]21C endpoint_value=inactive
compound=CC(C)(C)c1cc(C(C)(C)C)c(O)c(C(C)(C)C)c1 endpoint_value=inactive
compound=c1ccc2c(c1)ccc1ccccc12 endpoint_value=inactive

====

test: CCTE_Shafer_MEA_dev_inter_network_spike_interval_mean: CCTE's Neural Network Formation Assay for Mean Inter-network Spike Interval, Shafer Lab (AID 2284047)
Active and inactive are the calls of the source. The calls were made as follows: active = hit-call score of the fitted dose curve at least 0.9, where 1 is the maximum; inactive = score below 0.9.
Classes used: active, inactive

smiles_input=CC1=C(/C=C/C(C)=C/C=C/C(C)=C/C(=O)O)C(C)(C)CCC1 classification=active
smiles_input=OCCC(F)(F)C(F)(F)C(F)(F)C(F)(F)C(F)(F)C(F)(F)C(F)(F)C(F)(F)F classification=inactive
smiles_input=CN1CCC[C@H]1c1cccnc1 classification=inactive
smiles_input=C=C(C)C(=O)OCCC(F)(F)C(F)(F)C(F)(F)C(F)(F)C(F)(F)C(F)(F)F classification=inactive
smiles_input=c1ccc2cc3c(ccc4ccccc43)cc2c1 classification=inactive
smiles_input=CC#C[C@]1(O)CC[C@H]2[C@@H]3CCC4=CC(=O)CCC4=C3[C@@H](c3ccc(N(C)C)cc3)C[C@@]21C classification=inactive
smiles_input=c1ccc2c(c1)Cc1ccccc1-2 classification=inactive
smiles_input=OCCC(F)(F)C(F)(F)C(F)(F)C(F)(F)C(F)(F)C(F)(F)F classification=inactive
